This collection of values is drawn from ChEMBL document CHEMBL1145535.

Recorded Activity values for a group of compounds are listed next.
- Tested on: Streptococcus pneumoniae
- assayRemarks: Antimicrobial susceptibility of tetracycline-resistant Streptococcus pneumoniae from respiratory tract disease patient assessed as percent susceptible isolates
- Type: functional
Record the value in %, omitting the unit from your answer.

compound	unitsOfMeasure	Activity
O=C(N[C@H](CO)[C@H](O)c1ccc([N+](=O)[O-])cc1)C(Cl)Cl	%	70.7
CN[C@H](CC(C)C)C(=O)N[C@H]1C(=O)N[C@@H](CC(N)=O)C(=O)N[C@H]2C(=O)N[C@H]3C(=O)N[C@H](C(=O)N[C@H](C(=O)O)c4cc(O)cc(O)c4-c4cc3ccc4O)[C@H](O)c3ccc(c(Cl)c3)Oc3cc2cc(c3O[C@@H]2O[C@H](CO)[C@@H](O)[C@H](O)[C@H]2O[C@H]2C[C@](C)(N)[C@H](O)[C@H](C)O2)Oc2ccc(cc2Cl)[C@H]1O	%	100

Now for a further compound.
Consider `CC[C@H]1OC(=O)[C@H](C)C(=O)[C@H](C)[C@@H](O[C@@H]2O[C@H](C)C[C@H](N(C)C)[C@H]2O)[C@](C)(OC)C[C@@H](C)C(=O)[C@H](C)[C@H]2N(CCCCn3cnc(-c4cccnc4)c3)C(=O)O[C@]12C` . Its measured Activity is 98.8
